# credit: paper PMC7407822

Biological target: human recombinant AKR1B1 (Homo sapiens, UniProt P15121)
Construct: made in house
Assay: AKR1B1 activity assay (NADPH oxidation at 340 nm), dose-dependent inhibition, IC50
Type: biochemical
Details: IC50, HNE reduction, 0.03 mM HNE, 8 mU AKR1B1, 37 °C, pH 6.8
Procedure: One unit of enzyme activity is the amount of enzyme that catalyzes the conversion of 1 µmol of substrate/min in the above assay conditions. The human recombinant AKR1B1 was expressed and purified to electrophoretic homogeneity, as previously described. […] The purified enzyme was stored at −80 °C in a 10 mM sodium phosphate buffer pH 7.0 containing 2 mM DTT and 30% (w/v) glycerol. Before use, AKR1B1 was extensively dialyzed against 10 mM of a sodium phosphate buffer pH 7.0.
parameter measured: IC50 (µM)
A number alone suffices; assume µM.

Please give the measured IC50 for this compound: O=C(O)c1cc(O)c(O)c(O)c1 [GA, gallic acid]
586

----------
Molecular target: human recombinant AKR1B1 (Homo sapiens)
Construct: made in house
Experiment: AKR1B1 activity assay (NADPH oxidation at 340 nm), dose-dependent inhibition, IC50
Format: biochemical
Conditions: IC50, L-idose reduction, 8 mM L-idose, 8 mU AKR1B1, 37 °C, pH 6.8
parameter measured: pIC50
Lab note: report pIC50 as minus log10 of the concentration in molar units, number only.

Field: pIC50 (human recombinant AKR1B1 (Homo sapiens)). Entry: "O=C(O)c1cc(O)c(O)c(O)c1"
3.71
